assay: Toxicokinetics (blood), 14-day inhalation study in Sprague Dawley rats; assay type: in vivo, rat; details: female, Sprague-Dawley, rat, in vivo, inhaled or intranasal, 32.1 mg/kg/day, SD rat blood, inhalation, 32.1 mg/kg/day, Day 1, Female; read-out: AUC0-tlast, mean (SE)
reportedProperty: AUC(0-t) (ng·h/mL)

{"columns": ["compoundStructureString", "reportedProperty", "reportedValue"],
 "data": [
  ["CCn1c(C(C)(C)Oc2ccc(F)cc2F)nc2cc(NC(=O)Cc3ccc(S(=O)(=O)CC)cc3)ccc21", "AUC(0-t)", 9470]
]}

====

assay: Drug concentrations on day-8 in CS-model mice after 7-day intranasal treatment; format: in vivo; settings: C57BL/6, mouse, BAL fluid, other: intranasal; CS exposed mice, day-8, intranasal 30 µg/animal; read-out: Total concentration BAL fluid

{"columns": ["compoundStructureString", "concentration at 1 h [nM]"],
 "data": [
  ["CCn1c(C(C)(C)Oc2ccc(F)cc2F)nc2cc(NC(=O)Cc3ccc(S(=O)(=O)CC)cc3)ccc21", 390]
]}
